This listing pairs compounds with measured pIC50.
- Test system: IL-2 production from Jurkat cells
- ASSAY DETAILS: cells
- CONDITION SET: Homo sapiens, read-out: IL-2 production inhibition IC50 value
pIC50: −log10 of the molar value.
QUANTITY MEASURED: pIC50

> print(dat)
                         structure.notation  assay.value
1  Cn1nc(C(F)(F)F)cc1-c1ccc(C(=O)Nc2ccccc2Cl)s1       ≥ 6.00
2  Cc1ncsc1C(=O)Nc1ccc(-n2nc(C(F)(F)F)cc2C(F)(F)F)cc1       ≥ 6.00
